# IC50 listing for each entry below
System Name: Human LDHA (Homo sapiens (Human))
Test: human LDHA primary biochemical assay (resazurin/diaphorase coupled, fluorescence)
Assay Conditions: LDHA inhibitory activity, activity level based on IC50 (Table 7)

Smiles Str: NS(=O)(=O)c1ccc(Cc2c(-c3cccnc3)nn(-c3nc(C(=O)O)cs3)c2O)cc1
IC50: 1000 to 57000 nM
//
Smiles Str: Cc1ccc(-c2cccc(-c3nn(-c4nc(C(=O)O)cs4)c(CC4CC4)c3Cc3ccc(S(N)(=O)=O)cc3F)c2)cc1
IC50: < 100 nM
//
Smiles Str: CC(C)(C)C#Cc1cc(-c2nn(-c3nc(C(=O)O)cs3)c(CC3CC3)c2Cc2ccc(S(N)(=O)=O)c(F)c2)ccc1F
IC50: < 100 nM
//
Smiles Str: Cn1cncc1C#Cc1cc(-c2nn(-c3nc(C(=O)O)cs3)c(CC3CC3)c2Cc2ccc(S(N)(=O)=O)c(F)c2)ccc1F
IC50: < 100 nM

Every entry's value here was drawn from patent US10961200B2.
